target-of-assay: folate receptor beta (Homo sapiens (Human), UniProt P14207)
Sequence (P14207 17-255): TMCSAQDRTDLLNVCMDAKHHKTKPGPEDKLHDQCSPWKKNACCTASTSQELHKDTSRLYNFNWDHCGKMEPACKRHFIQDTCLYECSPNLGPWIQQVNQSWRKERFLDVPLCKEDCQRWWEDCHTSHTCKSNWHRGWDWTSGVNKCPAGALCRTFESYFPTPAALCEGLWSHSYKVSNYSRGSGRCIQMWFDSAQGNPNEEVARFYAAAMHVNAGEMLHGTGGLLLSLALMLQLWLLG
protocol: Folate receptor SPR assay (biotinylated folate receptor beta on streptavidin chip)
Format: binding
protocol-conditions: pH 7.5; multi-cycle kinetics, 25° C., 1:1 model; read-out: ka
Description: Folate receptor SPR binding assays were conducted on a Biacore 8K instrument (Cytiva) using biotinylated folate receptor beta (Acro Biosystems). Briefly, folate receptor was immobilized at -550 RU on a streptavidin chip (Cytiva) in 10 mM HEPES pH 7.5, 150 mM NaCl, 0.05% Tween 20. Multi-cycle kinetic studies were conducted with 8 compound concentrations using 2-fold dilutions in 10 mM HEPES pH 7.5, 150 mM NaCl, 0.05% Tween 20, 2% DMSO at 25° C. […]
Reported kon values for the following compounds.
# value in M⁻¹ s⁻¹; strip the unit string

Cc1nc2cc(F)c(-c3cnc(N4CCN(C(=O)COCCn5cc(CCCN6CCC7(CC6)CCN(C(=O)CC[C@H](NC(=O)c6ccc(NCc8cnc9nc(N)nc(O)c9n8)cc6)C(=O)O)CC7)nn5)CC4)nc3)nc2c(N[C@H](C)c2cc(C#N)ccc2F)c1Cl: 2.62e+07
Cc1nc2cc(F)c(-c3cnc(N4CCN(C(=O)COCCOCCOCCOCCOCCOCCn5cc(CC[C@H](NC(=O)c6ccc(NCc7cnc8nc(N)nc(O)c8n7)cc6)C(=O)O)nn5)CC4)nc3)nc2c(N[C@H](C)c2cc(C#N)ccc2F)c1Cl: 1e+07
Cc1nc2cc(F)c(-c3cnc(N4CCN(C(=O)COCCOCCOCCOCCOCCOCCn5cc(CC[C@H](NC(=O)c6ccc(OCc7ccc8nc(N)nc(O)c8c7)cc6)C(=O)O)nn5)CC4)nc3)nc2c(N[C@H](C)c2cc(C#N)ccc2F)c1Cl: 1.97e+07
Cc1nc2cc(F)c(-c3cnc(N4CCN(C(=O)COCCOCCOCCOCCOCCOCCn5cc(CC[C@H](NC(=O)c6ccc(CCc7ccc8nc(N)nc(O)c8c7)cc6)C(=O)O)nn5)CC4)nc3)nc2c(N[C@H](C)c2cc(C#N)ccc2F)c1Cl: 1.91e+07

Query :: kon lookup needed for `Cc1nc2cc(F)c(-c3cnc(N4CCN(C(=O)COCCn5cc(COCCOCCOCCN6CCN(C(=O)[C@H](CCC(=O)O)NC(=O)c7ccc(NCc8cnc9nc(N)nc(O)c9n8)cc7)CC6)nn5)CC4)nc3)nc2c(N[C@H](C)c2cc(C#N)ccc2F)c1Cl` , thanks.
Result :: 8.74e+06

Query :: Dear colleague, I am looking for the recorded kon of the following compound: `Cc1nc2cc(F)c(-c3cnc(N4CCN(C(=O)COCCn5cc(CN(C)CCOCCOCCOCCNC(=O)CC[C@H](NC(=O)c6ccc(NCc7cnc8nc(N)nc(O)c8n7)cc6)C(=O)O)nn5)CC4)nc3)nc2c(N[C@H](C)c2cc(C#N)ccc2F)c1Cl`
Result :: 8.72e+06

Query :: Request the reported kon associated with `Cc1nc2cc(F)c(-c3cnc(N4CCN(C(=O)COCCn5cc(COCCOCCOCCOCCNC(=O)CCCNC(=O)c6ccc(NCc7cnc8nc(N)nc(O)c8n7)cc6)nn5)CC4)nc3)nc2c(N[C@H](C)c2cc(C#N)ccc2F)c1Cl`
Result :: 1.27e+07

Query :: Reported kon for `Cc1nc2cc(F)c(-c3cnc(N4CCN(C(=O)COCCOCCOCCOCCOCCOCCn5cc(CC[C@H](NC(=O)c6ccc(N(C)Cc7ccc8nc(N)[nH]c(=O)c8c7)cc6)C(=O)O)nn5)CC4)nc3)nc2c(N[C@H](C)c2cc(C#N)ccc2F)c1Cl` : what is it?
Result :: 1.27e+07

Query :: For the compound `Cc1nc2cc(F)c(-c3cnc(N4CCN(C(=O)COCCOCCN5CCC6(CC5)CCN(C(=O)CC[C@H](NC(=O)c5ccc(NCc7cnc8nc(N)nc(O)c8n7)cc5)C(=O)O)CC6)CC4)nc3)nc2c(N[C@H](C)c2cc(C#N)ccc2F)c1Cl` , what kon is on record?
Result :: 2.59e+07

Query :: # input compound: `Cc1nc2cc(F)c(-c3cnc(N4CCN(C(=O)COCCn5cc(COCCOCCOCCN6CCN(C(=O)CC[C@H](NC(=O)c7ccc(NCc8cnc9nc(N)nc(O)c9n8)cc7)C(=O)O)CC6)nn5)CC4)nc3)nc2c(N[C@H](C)c2cc(C#N)ccc2F)c1Cl` ; wanted: its kon
Result :: 1.56e+07

Query :: Which kon is listed for `Cc1nc2cc(F)c(-c3cnc(N4CCN(C(=O)COCCn5cc(CN(CCO)CCOCCOCCOCCNC(=O)CC[C@H](NC(=O)c6ccc(NCc7cnc8nc(N)nc(O)c8n7)cc6)C(=O)O)nn5)CC4)nc3)nc2c(N[C@H](C)c2cc(C#N)ccc2F)c1Cl` ?
Result :: 1.63e+07

Query :: Need kon, item `Cc1nc2cc(F)c(-c3cnc(N4CCN(C(=O)COCCn5cc(COCCOCCOCCOCCNC(=O)CC[C@H](NC(=O)c6ccc(SCCc7cc8c(=O)[nH]c(N)nc8[nH]7)cc6)C(=O)O)nn5)CC4)nc3)nc2c(N[C@H](C)c2cc(C#N)ccc2F)c1Cl`
Result :: 4.49e+06

Query :: Consider the compound `Cc1nc2cc(F)c(-c3cnc(N4CCN(C(=O)COCCOCCOCCOCCOCCn5cc(CC[C@H](NC(=O)c6ccc(NCc7cnc8nc(N)nc(O)c8n7)cc6)C(=O)O)nn5)CC4)nc3)nc2c(N[C@H](C)c2cc(C#N)ccc2F)c1Cl` and give its measured kon.
Result :: 1.51e+06

Query :: Please look up its kon: `Cc1nc2cc(F)c(-c3cnc(N4CCN(C(=O)COCCOCCOCCOCCOCCOCCn5cc(CC[C@H](NC(=O)c6ccc(N(C)Cc7cnc8nc(N)[nH]c(=O)c8n7)cc6)C(=O)O)nn5)CC4)nc3)nc2c(N[C@H](C)c2cc(C#N)ccc2F)c1Cl`
Result :: 1.53e+07

----------
target-of-assay: TNFα and streptavidin immobilized FOL2R (Homo sapiens (Human), UniProt P01375+P14207)
Sequence (P01375 77-233, one chain of several): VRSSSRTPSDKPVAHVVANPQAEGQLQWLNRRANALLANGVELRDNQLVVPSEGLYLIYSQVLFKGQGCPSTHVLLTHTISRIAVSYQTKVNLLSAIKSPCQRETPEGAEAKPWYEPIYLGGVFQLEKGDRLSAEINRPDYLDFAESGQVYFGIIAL
protocol: Ternary complex SPR assay
Type: binding
protocol-conditions: 300 nM untagged TNF, 10 nM compound; max response normalized to expected response
List of TC 300 nM- tagless TNF Normalized values.
Answer with a number only, understood to be in %.

Please review the entries below; each comes with its answer.
Cc1nc2cc(F)c(-c3cnc(N4CCN(C(=O)COCCOCCOCCOCCOCCOCCn5cc(CC[C@H](NC(=O)c6ccc(N(C)Cc7cnc8nc(N)[nH]c(=O)c8n7)cc6)C(=O)O)nn5)CC4)nc3)nc2c(N[C@H](C)c2cc(C#N)ccc2F)c1Cl: 22.8
Cc1nc2cc(F)c(-c3cnc(N4CCN(C(=O)COCCn5cc(CCCN6CCC7(CC6)CCN(C(=O)CC[C@H](NC(=O)c6ccc(NCc8cnc9nc(N)nc(O)c9n8)cc6)C(=O)O)CC7)nn5)CC4)nc3)nc2c(N[C@H](C)c2cc(C#N)ccc2F)c1Cl: 20.6
Cc1nc2cc(F)c(-c3cnc(N4CCN(C(=O)COCCn5cc(COCCOCCOCCOCCNC(=O)CCCNC(=O)c6ccc(NCc7cnc8nc(N)nc(O)c8n7)cc6)nn5)CC4)nc3)nc2c(N[C@H](C)c2cc(C#N)ccc2F)c1Cl: 19.2

Query :: Would you kindly share the measured TC 300 nM- tagless TNF Normalized for `CN(Cc1cnc2nc(N)[nH]c(=O)c2n1)c1ccc(C(=O)N[C@@H](CCc2cn(CCOCCOCCOCCOCCOCCOCC(=O)N3CCN(c4ncc(-c5ccc6nc(COc7cccc(N8CCCC8=O)c7)n(Cc7ccccc7OC(F)F)c6c5)cn4)CC3)nn2)C(=O)O)cc1` ?
Result :: 17.5

Query :: Recorded TC 300 nM- tagless TNF Normalized for `Cc1nc2cc(F)c(-c3cnc(N4CCN(C(=O)COCCn5cc(COCCOCCOCCN6CCN(C(=O)[C@H](CCC(=O)O)NC(=O)c7ccc(NCc8cnc9nc(N)nc(O)c9n8)cc7)CC6)nn5)CC4)nc3)nc2c(N[C@H](C)c2cc(C#N)ccc2F)c1Cl` , please?
Result :: 21.1

----------
Please consider the recorded pIC50 for TNFα (Homo sapiens (Human)) in what follows.
Bear in mind: pIC50 is minus log10 of a mol/L concentration; give just that figure.

Cc1nc2cc(F)c(-c3cnc(N4CCN(C(=O)COCCn5cc(CN(CCO)CCOCCOCCOCCNC(=O)CC[C@H](NC(=O)c6ccc(NCc7cnc8nc(N)nc(O)c8n7)cc6)C(=O)O)nn5)CC4)nc3)nc2c(N[C@H](C)c2cc(C#N)ccc2F)c1Cl [Compound I-93]: 7.74
Cc1nc2cc(F)c(-c3cnc(N4CCN(C(=O)COCCOCCOCCOCCOCCOCCn5cc(CC[C@H](NC(=O)c6ccc(CCc7ccc8nc(N)nc(O)c8c7)cc6)C(=O)O)nn5)CC4)nc3)nc2c(N[C@H](C)c2cc(C#N)ccc2F)c1Cl [Compound I-82]: 7.72
Cc1nc2cc(F)c(-c3cnc(N4CCN(C(=O)COCCn5cc(CN(CCO)CCOCCOCCOCCNC(=O)CC[C@H](NC(=O)c6ccc(NCc7cnc8nc(N)nc(O)c8n7)cc6)c6nn[nH]n6)nn5)CC4)nc3)nc2c(N[C@H](C)c2cc(C#N)ccc2F)c1Cl [Compound I-80]: 7.44
Cc1nc2cc(F)c(-c3cnc(N4CCN(C(=O)COCCOCCOCCOCCOCCOCCn5cc(CC[C@H](NC(=O)c6ccc(OCc7ccc8nc(N)nc(O)c8c7)cc6)C(=O)O)nn5)CC4)nc3)nc2c(N[C@H](C)c2cc(C#N)ccc2F)c1Cl [Compound I-87]: 7.66
Cc1nc2cc(F)c(-c3cnc(N4CCN(C(=O)COCCn5cc(COCCOCCOCCN6CCN(C(=O)CC[C@H](NC(=O)c7ccc(NCc8cnc9nc(N)nc(O)c9n8)cc7)C(=O)O)CC6)nn5)CC4)nc3)nc2c(N[C@H](C)c2cc(C#N)ccc2F)c1Cl [Compound I-95]: 7.59
Cc1nc2cc(F)c(-c3cnc(N4CCN(C(=O)COCCn5cc(CN(C)CCOCCOCCOCCNC(=O)CC[C@H](NC(=O)c6ccc(NCc7cnc8nc(N)nc(O)c8n7)cc6)C(=O)O)nn5)CC4)nc3)nc2c(N[C@H](C)c2cc(C#N)ccc2F)c1Cl [Compound I-94]: 7.66

Query :: Item CN(Cc1cnc2nc(N)[nH]c(=O)c2n1)c1ccc(C(=O)N[C@@H](CCc2cn(CCOCCOCCOCCOCCOCCOCC(=O)N3CCN(c4ncc(-c5ccc6nc(COc7cccc(N8CCCC8=O)c7)n(Cc7ccccc7OC(F)F)c6c5)cn4)CC3)nn2)C(=O)O)cc1 [Compound I-83] with TNFα (Homo sapiens (Human)) - pIC50?
Result :: 7.55

Query :: Record lookup: for TNFα (Homo sapiens (Human)), what pIC50 belongs to Cc1nc2cc(F)c(-c3cnc(N4CCN(C(=O)COCCOCCOCCOCCOCCOCCn5cc(CC[C@H](NC(=O)c6ccc(NCc7cnc8nc(N)nc(O)c8n7)cc6)C(=O)O)nn5)CC4)nc3)nc2c(N[C@H](C)c2cc(C#N)ccc2F)c1Cl [Compound I-92] ?
Result :: 7.70

Query :: # get_value(readout= pIC50, system= TNFα (Homo sapiens (Human))) for Cc1nc2cc(F)c(-c3cnc(N4CCN(C(=O)COCCOCCN5CCC6(CC5)CCN(C(=O)CC[C@H](NC(=O)c5ccc(NCc7cnc8nc(N)nc(O)c8n7)cc5)C(=O)O)CC6)CC4)nc3)nc2c(N[C@H](C)c2cc(C#N)ccc2F)c1Cl [Compound I-84]
Result :: 8.05
